Source of measurements: the supplement of paper PMC10567573

Known protein stability index of a selection of variants
B1: PPFIA4 (parent)
chain: VMTLPSDLRKHRRKLLSPVSREEN

variants of: B1; assay: protein stability index of a GFP-peptide fusion (GPS, HEK-293T) (PSI 1-6); higher = more stable; settings: c terminus: a fixed tail appended;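 note: lentivirally expressed fusions sorted by FACS into six bins by GFP to DsRed ratio, PSI derived from sequencing read proportions per bin multiplied by bin number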
Output: the number by itself.

sequence-entry | protein stability index
VMTLPSDLRKHRRKLLSPYSREEN [V19Y] | 2.94
VMTLPSDLRKHRSKLLSPVSREEN [R13S] | 4.36
VMTLPSDLCKHRRKLLSPVSREEN [R9C] | 4.01
VMTLPSDLRKHRRHLLSPVSREEN [K14H] | 3.81
VMQLPSDLRKHRRKLLSPVSREEN [T3Q] | 2.85

Task: Look up protein stability index for this variant: VMTLPSDLRKHRPKLLSPVSREEN [R13P]
Result: 4.33

Task: Also VMTLPSQLRKHRRKLLSPVSREEN [D7Q] ?
Result: 3.3

Task: What about VMTLPSDLRKHRRKLLQPVSREEN [S17Q] ?
Result: 4.08

Task: Likewise for VMTLPSDLRKHRRKLLFPVSREEN [S17F] ?
Result: 4.01

Task: Another variant: VMTLPSDLRKHRRKLLSPVSCEEN [R21C]
Result: 4.06

Task: Follow-up entry: VMTLPSDLRKHRRKNLSPVSREEN [L15N]
Result: 4.38

Task: Try this variant too: VMTLPSDLRKHRRKLLSPQSREEN [V19Q]
Result: 4.31

Task: VMTLPSDLRKHRRILLSPVSREEN [K14I] ?
Result: 3.1

Task: Field entry: VMTLPIDLRKHRRKLLSPVSREEN [S6I]
Result: 3.04

Task: Further, for VMTLPSDLRKHRRKLLSPVRREEN [S20R] ?
Result: 3.84

Task: For VMTLPSDLRKHRRKLLSPVSREEP [N24P] then?
Result: 3.45

Task: Another variant: VWTLPSDLRKHRRKLLSPVSREEN [M2W]
Result: 3.72
